Each recorded value in this set is attributed to PubChem BioAssay.

Catalogue of compounds with associated z-score
Experimental protocol: P. aeruginosa biofilm formation inhibitors, primary screen, PAO1 strain, BacTiter-Glo luminescence, LB-PBS (AID 1144)
Condition info: 12 h, higher = more signal
Quantity: z-score

C=CCC(OC(C)=O)[C@@H]1[C@@H](N(Cc2cc3ccccc3o2)C(=O)c2ccc(C)cc2)c2cc(OCCCO)ccc2N1C(=O)Cc1ccc(OC)cc1 (stereo partly drawn)	-0.491
Cc1cc(C)c(C(O)C2C=CC3C(=O)NC(=O)C3N2Nc2ccc(Cl)cc2Cl)c(C)c1 (stereo not drawn)	-0.882
CC(C)C(CO)N1C(=O)[C@@H]2C3C(=O)OCCC/C=C\[C@H]3OC23C=CCN(C(C)(C)C)C(=O)[C@@H]13 (stereo partly drawn)	1.19
CCOC(=O)C[C@H]1[C@H](OC(=O)Cc2ccc3c(c2)OCO3)[C@@H](NC(=O)Cc2ccc(OC)cc2)c2cc(OCCCO)ccc2N1C(=O)c1ccc2ccccc2n1	-0.687
COCCCNC(=O)[C@@]1(Cc2ccccc2N=[N+]=[N-])N=C(c2ccc(OCCCO)cc2)O[C@H]1c1ccccc1	-1.31
O=C1O[C@H](c2ccccc2)[C@H](c2ccccc2)N2[C@H]1[C@@H](C(=O)NC[C@H](O)c1ccccc1)[C@]1(C(=O)Nc3ccc(C#CCCO)cc31)[C@H]2c1ccc(OCCO)cc1	-0.626
C=CCC(OC(C)=O)[C@@H]1[C@@H](N(Cc2ccc(-c3cccc(C(F)(F)F)c3)o2)C(=O)c2ccc(-c3ccccc3)cc2)c2cc(OCCCO)ccc2N1C(=O)c1ccc2ccccc2n1 (stereo partly drawn)	-0.171
C=C(C)[C@@H]1CC=C(C(O)C2C=CC3C(=O)N(c4ccccc4)C(=O)C3N2Nc2ccccc2F)CC1 (stereo partly drawn)	-0.887
COC(=O)[C@@]1(Cc2ccc(OC)cc2)[C@H]2c3cc(C(=O)N(C)C)n(Cc4ccc(Cl)c(C(F)(F)F)c4)c3C[C@H]2CN1C(=O)c1ccccc1	0.275
COc1ccc([Si](C)(C)[C@@H]2[C@@H](CC(=O)N(CCO)Cc3ccccc3)O[C@]3(C(=O)N(c4ccccc4)c4ccccc43)[C@H]2C)cc1	-0.334
CO[C@H]1O[C@H](CO)[C@@H](OC(=O)Nc2ccc3c(c2)OCO3)[C@H](OC(=O)c2cc3ccccc3[nH]2)[C@H]1OC(=O)c1cc2ccccc2[nH]1	-1.37
COc1ccc([Si](C)(C)[C@@H]2[C@@H](CC(=O)N(CCO)Cc3ccccc3)O[C@]3(C(=O)N(Cc4cccc(N5CCOC5=O)c4)c4ccccc43)[C@H]2C)cc1	-0.122
COC(=O)[C@@]1(Cc2ccc(OC)cc2)[C@H]2c3cc(C(=O)N(C)C)n(CCO)c3C[C@H]2CN1C(=O)c1ccccc1	0.371

====

Experimental protocol: fission yeast growth modulation, primary screen, strain 972, OD600, 24 h, no modulator (AID 1090);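 further: basal condition with compound alone and no growth modifier present; test concentration not given here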
Condition info: S. pombe 972 growth, higher = more signal, called active from +8 up or from −8 down
Label T when z-score is at or above -0.7; otherwise label F.

C=CC[C@]1(C(=O)NCCN2CCOCC2)N=C(c2ccc(OCCCO)cc2)O[C@H]1c1ccccc1CN=[N+]=[N-]	F
CC1=C[C@@]2(CO)C(=O)[C@]3(CO3)[C@@H]1[C@H]1[C@]2(C)C=C(CO)C(=O)[C@]12CO2	F
O=C1c2ccccc2[C@](Cc2ccccc2I)(C(=O)NCC(F)(F)F)[C@H](c2ccc(CO)cc2)N1C1CCCCC1	F
COCCOC(=O)N1C(=O)[C@@]2(c3cc(C#CCCO)ccc31)[C@H](c1ccccc1OCCO)N1[C@H](c3ccccc3)[C@H](c3ccccc3)OC(=O)[C@H]1[C@@H]2C(=O)Nc1nc2ccccc2s1	T
CN(C)CCCNC(=O)[C@@H]1c2ccccc2C(=O)N(Cc2ccccc2Cl)[C@H]1c1ccc(CO)cc1	F
O=C1O[C@H](c2ccccc2)[C@H](c2ccccc2)N2[C@H]1[C@@H](C(=O)NC[C@H](O)c1ccccc1)[C@]1(C(=O)Nc3ccc(C#CCCO)cc31)[C@H]2c1ccc(OCCO)cc1	T
COc1ccccc1CN1C(=O)c2ccccc2[C@](Cc2ccccc2I)(C(=O)NCC(F)(F)F)[C@@H]1c1ccc(CO)cc1	T
C=CCC(OC(C)=O)[C@@H]1[C@@H](N(Cc2ccc(-c3cccc(C(F)(F)F)c3)o2)C(=O)c2ccc(C)cc2)c2cc(OCCCO)ccc2N1C(=O)c1ccc2ccccc2c1 (stereo partly drawn)	T
CO[C@H]1O[C@H](CO)[C@@H](OC(=O)Nc2ccccc2-c2ccccc2)[C@H](OC(=O)Nc2ccc3c(c2)OCO3)[C@H]1OC(=O)Nc1ccc2c(c1)OCO2	T
NC(=O)NCC#Cc1ccc2c(c1)[C@]1(C(=O)N2)[C@H](C(=O)NC[C@H](O)c2ccccc2)[C@H]2C(=O)O[C@H](c3ccccc3)[C@H](c3ccccc3)N2[C@@H]1c1ccc(OCCO)cc1	T
[N-]=[N+]=NCc1ccccc1[C@@H]1OC(c2ccc(OCCCO)cc2)=N[C@]1(CCS(=O)(=O)c1ccccc1)C(=O)NCC(O)CO (stereo partly drawn)	F
COCCOC(=O)N1C(=O)[C@@]2(c3cc(C#CC4=CCCCC4)ccc31)[C@H](C(=O)N1CCCCCCC1)[C@H]1C(=O)O[C@H](c3ccccc3)[C@H](c3ccccc3)N1[C@@H]2c1ccc(O)cc1	T
C=C(COC)/C(=C/C[C@H](OC(C)=O)c1ccc(OCCO)cc1)c1cc(C(=O)OC)ccc1OC	F
